Numbers sourced from ChEMBL document CHEMBL1135279.

Biological target: Lignostilbene alpha, beta-dioxygenase (Sphingomonas paucimobilis)
Sequence (O87171 whole entry): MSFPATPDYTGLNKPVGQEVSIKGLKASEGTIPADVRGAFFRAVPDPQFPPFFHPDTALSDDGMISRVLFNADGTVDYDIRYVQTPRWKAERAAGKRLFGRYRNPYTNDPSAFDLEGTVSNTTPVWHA
Assay: Inhibitory concentration against Lignostilbene alpha beta-dioxygenase (LSD) was determined in 2 mL of 50 mM […] buffer containing 4 microg enzyme/mL at 30 degree C
pIC50: −log10 of the molar value.
endpoint.label: pIC50

P. C/C(=C/c1ccc(O)cc1)c1ccccc1
Q. C/C(=C/c1ccccc1)c1ccccc1
Ask | For this pair, P and Q , which shows a numerically higher pIC50? Answer with the label corresponding to your selection.
Reply | P

---

Molecular target: Lignostilbene alpha, beta-dioxygenase (Sphingomonas paucimobilis, UniProt O87171)
Experiment: Inhibitory concentration against Lignostilbene-alpha, beta-dioxygenase (LSD) was determined in 2 mL of 50 mM […] buffer containing 4 microg enzyme/mL at 30 degree C
pIC50: −log10 of the molar value.
endpoint.label: pIC50

substance.smiles	pIC50
C=C(C)c1ccc(O)cc1	4.92

1. Oc1ccc(/C(F)=C/c2ccccc2)cc1
2. C/C(=C\c1ccc(O)cc1)c1ccccc1
Ask | For this pair, 1 and 2 , which shows a numerically higher pIC50? Answer with the label corresponding to your selection.
Reply | 1
